This collection of values is drawn from patent US9216991B2.

Biological target: IRAK4 (Homo sapiens, UniProt Q9NWZ3)
Construct: His (N); TEV cleavage site (N)
Sequence (Q9NWZ3 1-460): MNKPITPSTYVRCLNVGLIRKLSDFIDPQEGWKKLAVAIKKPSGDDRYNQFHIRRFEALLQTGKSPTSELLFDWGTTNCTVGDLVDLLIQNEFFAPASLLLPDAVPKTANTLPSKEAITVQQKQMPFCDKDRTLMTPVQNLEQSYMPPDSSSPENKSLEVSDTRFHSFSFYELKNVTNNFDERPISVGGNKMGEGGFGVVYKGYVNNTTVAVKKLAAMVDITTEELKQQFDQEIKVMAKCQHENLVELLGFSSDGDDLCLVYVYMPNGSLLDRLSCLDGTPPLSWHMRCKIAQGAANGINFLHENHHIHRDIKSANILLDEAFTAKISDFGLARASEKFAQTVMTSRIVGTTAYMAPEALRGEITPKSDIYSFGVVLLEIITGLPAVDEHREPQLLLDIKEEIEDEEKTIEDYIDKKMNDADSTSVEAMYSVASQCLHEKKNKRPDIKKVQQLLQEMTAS
Test: IRAK4 Enzymatic Assay
Settings: His-TEV-IRAK4 20 ng/well, ATP 2 μM, STK1-biotin peptide 300 nM, 3 hours at 30° C., FlashPlate radioactivity
Where a name gives a salt, the structure may show the parent alone.
quantity: IC50

Enter reported IC50 observed with IRAK4 (Homo sapiens, UniProt Q9NWZ3) for CN1C[C@]2(CC[C@H](n3cc(-c4cnc(-c5cccc(-c6cnn(C)c6)c5)nc4)cn3)CC2)CC1=O
< 0.1 µM

Query the reported IC50 for IRAK4 (Homo sapiens, UniProt Q9NWZ3); item: Cn1cc(-c2cccc(-c3ncc(-c4cnn(C5CCN(C6CCOCC6)CC5)c4)cn3)c2)cn1
< 0.1 µM

Given the entry Cn1cc(-c2cccc(-c3ncc(-c4cnn(CC(O)c5ccccn5)c4)cn3)c2)cn1 (stereo not drawn) , what IC50 was observed with IRAK4 (Homo sapiens, UniProt Q9NWZ3)?
0.1 to 1 µM

Find IC50 (IRAK4 (Homo sapiens, UniProt Q9NWZ3)) for the entry CC(=O)N1CC[C@H](n2cc(-c3cnc(-c4cccc(-c5cnn(C)c5)c4)nc3)cn2)[C@@H](O)C1 (single isomer, unassigned) [Example 202]
0.1 to 1 µM

Report IC50 for Cc1ncc(-c2cccc(-c3ncc(-c4cnn(CC(=O)N5CCCC5)c4)cn3)c2)s1 tested on IRAK4 (Homo sapiens, UniProt Q9NWZ3).
0.1 to 1 µM

Find the measured IC50: item Cn1cc(-c2cccc(-c3ncc(-c4cnn([C@H]5CC[C@@H](N6CCOCC6)CC5)c4)cn3)c2)cn1 , target or system IRAK4 (Homo sapiens, UniProt Q9NWZ3).
1 to 5 µM

Under IRAK4 (Homo sapiens, UniProt Q9NWZ3): IC50 value of Cn1cc(-c2cccc(-c3ncc(-c4cnn([C@H]5CC[C@H](N6CCOC6=O)CC5)c4)cn3)c2)cn1 ?
0.1 to 1 µM

What is its IC50 for IRAK4 (Homo sapiens, UniProt Q9NWZ3)? Entry: CC(=O)N1CCCC(n2cc(-c3cnc(-c4cccc(-c5cnn(C)c5)c4)nc3)cn2)C1 (stereo in doubt)
< 0.1 µM

Query for IRAK4 (Homo sapiens, UniProt Q9NWZ3): what IC50 does the record show for COCCn1cc(-c2cnc(-c3cccc(-c4cnn(C)c4)c3)nc2)cn1 ?
0.1 to 1 µM

Could you share what IC50 was measured for NCCn1cc(-c2cccc(-c3ncc(-c4cnn(CC(=O)N5CCCC5)c4)cn3)c2)cn1 [Example 50, hydrochloride] , tested on IRAK4 (Homo sapiens, UniProt Q9NWZ3)?
1 to 5 µM

Item: CN(C)C(=O)CCn1cc(-c2cnc(-c3cccc(-c4cnn(C)c4)c3)nc2)cn1 Test system: IRAK4 (Homo sapiens, UniProt Q9NWZ3) Read-out: IC50 Value: ?
0.1 to 1 µM

Record lookup: for IRAK4 (Homo sapiens, UniProt Q9NWZ3), what IC50 belongs to Cn1cc(-c2cccc(-c3ncc(-c4cnn(C(C)(C)C(=O)N5CCOCC5)c4)cn3)c2)cn1 ?
1 to 5 µM

Provide the documented IC50 with IRAK4 (Homo sapiens, UniProt Q9NWZ3) as the system for Cn1cc(-c2cccc(-c3ncc(-c4cnn(C5CNC5)c4)cn3)c2)cn1 [Example 26, hydrochloride]
1 to 5 µM

Query the reported IC50 for IRAK4 (Homo sapiens, UniProt Q9NWZ3); item: Cn1cc(-c2cccc(-c3ncc(-c4cnn(CC5CNC5)c4)cn3)c2)cn1 [Example 66, hydrochloride]
0.1 to 1 µM

Could you share what IC50 was measured for COCCO[C@H]1CC[C@H](n2cc(-c3cnc(-c4cccc(-c5cnn(C)c5)c4)nc3)cn2)CC1 , tested on IRAK4 (Homo sapiens, UniProt Q9NWZ3)?
< 0.1 µM
